# credit: PubChem BioAssay (NCI)

- System: A498 renal
- Assay: NCI tumour cell line growth inhibition, 48 h
Please go through the items and note down their TGI.

Illustrative cases are given below, each with its answer.
[
  {
    "Compound": "CC1(C)CCC2=C(O1)c1ccccc1C(=O)C2=O",
    "Data value": "11.3 µM"
  },
  {
    "Compound": "N#C/C(C(=O)Nc1ccc(Cl)cc1)=C(/N)N1CCCCC1",
    "Data value": "> 100 µM"
  },
  {
    "Compound": "N#Cc1c(N)[nH]c(=S)c(C#N)c1-c1ccccc1",
    "Data value": "> 100 µM"
  },
  {
    "Compound": "C1=C(c2ccccc2)Nc2nnnn2C1c1ccccc1 (configuration not stated)",
    "Data value": "> 100 µM"
  },
  {
    "Compound": "CC(NC(=O)C(N)CC(=O)O)NC(=O)C1CCC1 (configuration not stated)",
    "Data value": "> 100 µM"
  },
  {
    "Compound": "O=C1NC(=O)C2(CCCCCC2)N1",
    "Data value": "> 100 µM"
  }
]

Give the measured TGI of `COc1ccc(/C(O)=C/c2nc3cccnc3nc2/C=C(\O)c2ccc(OC)cc2)cc1` .
> 100 µM

* * *

- Tested on: HOP-92 NSCLC
- Assay: NCI tumour cell line growth inhibition, 48 h
Metric: TGI (µM)
One number for each entry, in µM.

Illustrative cases are given below, each with its answer.
[
  {
    "Compound": "O=C(CN(/C=C/C(=O)C(F)(F)F)c1ccc(Cl)cc1)c1ccccc1",
    "Unit annotation": "µM",
    "TGI": 28.1
  },
  {
    "Compound": "CCOC(=O)c1c(C)n2c(=O)cc(C)c3c(O)c(O)cc1c32",
    "Unit annotation": "µM",
    "TGI": 31.6
  },
  {
    "Compound": "O=C(N/N=C/c1cc(Cl)cc(Cl)c1[O-])c1ccccc1O.O=C(N/N=C/c1cc(Cl)cc(Cl)c1[O-])c1ccccc1O.[Zn+2]",
    "Unit annotation": "µM",
    "TGI": 4.98
  }
]

Okay, now this compound:
Give the measured TGI of COc1ccc2cc(-c3cc4c(oc3=O)-c3ccccc3OC4O)c(=O)oc2c1 (centres undefined) .
24.7

* * *

- Tested on: NCI-H226 lung
- Assay: NCI tumour cell line growth inhibition, 48 h
Where a SMILES comes first, the peptide text is derived from it. The star is where a group is joined. Cbz = O=C(OCc1ccccc1)*; Boc = CC(C)(C)OC(=O)*; OSu = O=C1CCC(=O)N1O*; Bn = c1ccc(C*)cc1
Please go through the items and note down their TGI.
One number for each entry, in µM.

[
  {
    "Compound": "O=C(/C(=C\\c1ccc([N+](=O)[O-])cc1)S(=O)Cc1ccc(F)cc1)c1ccc(F)cc1 (configuration not stated)",
    "TGI (µM)": 21.9
  },
  {
    "Compound": "CC(C)(C)OC(=O)NC(Cc1ccc(OCc2ccccc2)cc1)C(=O)NC(CCCCNC(=O)OCc1ccccc1)C(=O)ON1C(=O)CCC1=O (configuration not stated) (Boc-Tyr(Bn)-Lys(Cbz)-OSu; configuration not given here)",
    "TGI (µM)": 99.6
  }
]

Okay, now this compound:
Value wanted: TGI (NCI-H226 lung) of entry `O=C(N/N=C/c1cc(Cl)cc(Cl)c1[O-])c1ccccc1O.O=C(N/N=C/c1cc(Cl)cc(Cl)c1[O-])c1ccccc1O.[Zn+2]`
7.61

* * *

- Tested on: KM12 colon
- Assay: NCI tumour cell line growth inhibition, 48 h
Where a SMILES comes first, the peptide text is derived from it. The star is where a group is joined. Cbz = O=C(OCc1ccccc1)*; Boc = CC(C)(C)OC(=O)*; OSu = O=C1CCC(=O)N1O*; Bn = c1ccc(C*)cc1
Please go through the items and note down their TGI.

Illustrative cases are given below, each with its answer.
[
  {
    "Compound": "C=CC(C1=CC(=O)C(OC)=CC1=O)c1ccccc1 (stereo unspecified)",
    "TGI": "34.6 µM"
  },
  {
    "Compound": "COc1cccc(/C=N/[N-]C(N)=O)c1[O-].[Ni+2].[OH3+].c1ccc(-c2ccccn2)nc1",
    "TGI": "> 100 µM"
  },
  {
    "Compound": "N#C/C(C(=O)Nc1ccc(Cl)cc1)=C(/N)N1CCCCC1",
    "TGI": "> 100 µM"
  },
  {
    "Compound": "COC(=O)C(Cc1cc(OC)c(OC)c(OC)c1)c1ccc(OC)cc1 (stereo unspecified)",
    "TGI": "> 100 µM"
  },
  {
    "Compound": "O=C1Nc2c(C(F)(F)F)cccc2[C@@]1(c1ccc(O)cc1)c1ccc(OC(F)(F)F)cc1",
    "TGI": "3.28 µM"
  }
]

Report TGI for each item below.
1. O=c1[nH]nc(Cc2ccccc2)n1/N=C\c1ccccc1
2. NS(=O)(=O)c1ccc(NC2=CC(=O)C(=O)c3ccccc32)cc1
3. Nc1nc(OCc2cc(Br)cs2)c2[nH]cnc2n1
4. CC(C)(C)OC(=O)NC(Cc1ccc(OCc2ccccc2)cc1)C(=O)NC(CCCCNC(=O)OCc1ccccc1)C(=O)ON1C(=O)CCC1=O (stereo unspecified) (Boc-Tyr(Bn)-Lys(Cbz)-OSu; configuration not given here)
5. C/C=C/C1=CC(=O)C(O)C1O (stereo unspecified)
6. C[C@H](Nc1ncnc2nc[nH]c12)c1cc2ccc(F)cc2nc1-c1ccccn1
7. Clc1cc(Cl)cc(C2ON=C(c3ccccc3)N2C23CC4CC(CC(C4)C2)C3)c1 (stereo unspecified)
8. O=[N+]([O-])c1ccccc1N/N=C\c1c[nH]c2ccccc12

1. > 100 µM
2. > 100 µM
3. > 100 µM
4. 65.5 µM
5. 39 µM
6. > 100 µM
7. > 10 µM
8. > 100 µM

Report TGI for each item below.
1. O=C(c1ccccc1)c1ccc(Oc2ccc([N+](=O)[O-])cc2[N+](=O)[O-])cc1
2. COc1cc(-c2nc3ccccc3s2)ccc1NC(=O)COc1ccc(Cl)cc1
3. COc1ccc(C2CC(c3cc(C)ccc3O)=NC(N)=N2)cc1 (stereo unspecified)
4. Clc1cccc(Cl)c1C1CSc2ccccc2N=C1c1ccccc1 (stereo unspecified)

7.34 µM
> 100 µM
> 100 µM
4.69 µM

Report TGI for each item below.
1. C[C@]12CC[C@H](O)C[C@H]1CC[C@@H]1[C@@H]2CC[C@]2(C)[C@@H](C3=CC(=O)OC3)[C@@H](O)C[C@]12O
2. COc1ccc(C(CC(=O)C(C)(C)CN2CCCCC2)SCCS(=O)(=O)O)cc1 (stereo unspecified)
3. Oc1ccc(O)c(-c2cn3ccsc3n2)c1

1: 18.2 µM; 2: > 100 µM; 3: 27.7 µM

Give the measured TGI of CNC(=O)SCC(N)C(=O)O (stereo unspecified) .
> 100 µM

* * *

- Tested on: A549 NSCLC
- Assay: NCI tumour cell line growth inhibition, 48 h
Please go through the items and note down their TGI.

Illustrative cases are given below, each with its answer.
[
  {
    "Molecule": "N#Cc1ccccc1NC(=O)C(=O)c1c(O)c2ccccc2oc1=O",
    "TGI": "> 100 µM"
  },
  {
    "Molecule": "CC1=CC[C@@]2(CO)[C@@H]([C@@H]1C)[C@H]1CC[C@@H]3[C@@]4(C)CC[C@H](O)C(C)(C)[C@@H]4CC[C@@]3(C)[C@]1(C)C[C@@H]2O",
    "TGI": "> 100 µM"
  },
  {
    "Molecule": "COC(=O)/C(=N\\Nc1nc(=S)[nH]n1N)C(C#N)c1ccccc1 (centres undefined)",
    "TGI": "> 100 µM"
  },
  {
    "Molecule": "NC(=S)N/N=C1\\NC(=O)/C(=C/c2ccc3c(c2)OCO3)S1",
    "TGI": "> 100 µM"
  },
  {
    "Molecule": "Cc1ccc(Nc2c(C#N)[n+]([O-])c3cc(Cl)ccc3[n+]2[O-])cc1",
    "TGI": "> 100 µM"
  },
  {
    "Molecule": "CNC(=O)N(CCC#N)CCCN(C(=O)NC)c1ccccc1",
    "TGI": "> 100 µM"
  },
  {
    "Molecule": "COc1ccc2c(c1)[nH]c(=O)c1c3cc(OC)ccc3cn21",
    "TGI": "1.28 µM"
  },
  {
    "Molecule": "COc1ccc(C(=O)COC(=O)[C@H](C[Se][Se]C[C@H](NC(=O)c2ccc(Br)cc2F)C(=O)OCC(=O)c2ccc(OC)cc2)NC(=O)c2ccc(Br)cc2F)cc1",
    "TGI": "3.79 µM"
  }
]

Give the measured TGI of `CN(NC(=O)c1cccs1)C1=NCCCCN1` .
> 100 µM
